experiment: Cmax in BALB/c mouse plasma at 30 mg/kg, ig; type: ADME, organism-based; settings: po
measurement kind: Cmax (ng/mL)

CCCCCCCC1OC(=O)c2cc(N3N=C(c4cc(Cl)ccc4O)CC3=O)ccc21 (stereo unspecified); 1540

----------
biological target: Amine oxidase [flavin-containing] B (Homo sapiens); assay: Inhibition of human recombinant MAO-B
Sequence (P27338 whole entry): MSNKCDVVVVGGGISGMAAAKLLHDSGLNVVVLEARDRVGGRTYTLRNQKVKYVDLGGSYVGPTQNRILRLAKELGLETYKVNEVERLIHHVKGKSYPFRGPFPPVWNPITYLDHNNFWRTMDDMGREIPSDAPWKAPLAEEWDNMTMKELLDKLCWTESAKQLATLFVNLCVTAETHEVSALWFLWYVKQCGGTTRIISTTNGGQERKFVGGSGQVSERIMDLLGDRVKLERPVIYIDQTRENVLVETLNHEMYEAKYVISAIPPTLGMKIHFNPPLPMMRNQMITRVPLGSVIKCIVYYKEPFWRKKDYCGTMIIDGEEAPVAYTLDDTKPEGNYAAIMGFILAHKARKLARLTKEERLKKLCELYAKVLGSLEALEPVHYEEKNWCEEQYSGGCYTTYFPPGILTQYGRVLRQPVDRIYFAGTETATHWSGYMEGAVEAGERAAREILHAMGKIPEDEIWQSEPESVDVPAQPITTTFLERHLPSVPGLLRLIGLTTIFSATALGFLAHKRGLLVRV
pIC50: −log10 of the molar value.
Items are presented alongside their recorded pIC50.
measurement kind: pIC50

CCCCC1OC(=O)c2cc(N3N=C(c4ccc(Br)cc4O)CC3=O)ccc21 (configuration not stated); 4.91
CCCCC1OC(=O)c2cc(N3N=C(c4cc(F)ccc4O)CC3=O)ccc21 (configuration not stated); 5.46
CCCCC1OC(=O)c2cc(N3N=C(c4cc(Cl)ccc4O)CC3=O)ccc21 (configuration not stated); 5.12
[2H]C1OC(=O)c2cc(N3N=C(C)CC3=O)ccc21 (configuration not stated); 5.36
CCCCCCCC1OC(=O)c2cc(N3N=C(c4cc(OC)ccc4O)CC3=O)ccc21 (configuration not stated); 5.54
CCCCCCC1OC(=O)c2cc(N3N=C(c4ccccc4O)CC3=O)ccc21 (configuration not stated); 5.42
CCCCC1OC(=O)c2cc(N3N=C(c4cc(Br)ccc4O)CC3=O)ccc21 (configuration not stated); 5.03
CCCCCCCC1OC(=O)c2cc(N3N=C(c4ccccc4O)CC3=O)ccc21 (configuration not stated); 4.94
CCCCC1OC(=O)c2cc(N3N=C(c4cc([N+](=O)[O-])ccc4O)CC3=O)ccc21 (configuration not stated); 5.03
CCCCC1OC(=O)c2cc(N3N=C(c4cc(OC)ccc4O)CC3=O)ccc21 (configuration not stated); 5.41
CCCCC1OC(=O)c2cc(N3N=C(c4cc(Cl)cc(Cl)c4O)CC3=O)ccc21 (configuration not stated); 5.26
CCCCC1OC(=O)c2cc(N3N=C(c4ccc(Cl)cc4O)CC3=O)ccc21 (configuration not stated); 5.09
CCCCCCC1OC(=O)c2cc(N3N=C(c4cc(Cl)ccc4O)CC3=O)ccc21 (configuration not stated); 5.08
CCCCC1OC(=O)c2cc(N3N=C(c4cc(N(C)C)ccc4O)CC3=O)ccc21 (configuration not stated); 5.21
